Source of measurements: ChEMBL document CHEMBL4138230

Target: Estrogen receptor (Homo sapiens)
Sequence (whole entry): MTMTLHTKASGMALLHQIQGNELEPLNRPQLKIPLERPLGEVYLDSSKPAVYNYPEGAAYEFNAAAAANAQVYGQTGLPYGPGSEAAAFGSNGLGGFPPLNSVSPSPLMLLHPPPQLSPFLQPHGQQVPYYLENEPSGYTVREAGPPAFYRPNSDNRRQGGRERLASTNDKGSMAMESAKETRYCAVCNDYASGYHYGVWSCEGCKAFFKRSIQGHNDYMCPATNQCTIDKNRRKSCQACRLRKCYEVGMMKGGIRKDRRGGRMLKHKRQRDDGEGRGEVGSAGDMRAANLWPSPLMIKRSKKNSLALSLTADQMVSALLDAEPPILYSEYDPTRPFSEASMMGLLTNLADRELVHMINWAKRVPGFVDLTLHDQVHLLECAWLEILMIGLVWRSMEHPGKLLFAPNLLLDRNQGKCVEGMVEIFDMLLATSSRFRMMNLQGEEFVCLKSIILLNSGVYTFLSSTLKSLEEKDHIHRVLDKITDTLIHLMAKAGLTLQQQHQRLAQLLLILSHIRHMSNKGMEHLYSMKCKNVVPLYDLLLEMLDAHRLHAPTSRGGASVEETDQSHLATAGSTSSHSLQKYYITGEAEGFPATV
Test: Antagonist activity at ERalpha in human MCF7 cells at 5 uM after 24 hrs by luciferase reporter gene assay relative to control
Type: cell-based
The source made the active and inactive calls. No cut-off for these calls is given here.
Result category, one only: Yes for active, No for inactive

Study these solved cases before continuing.
>>> cat("CC(O)C1=CC[C@H]2[C@@H]3CCc4cc(O)ccc4[C@H]3CC[C@]12C (mixture of isomers)")
"No"
>>> cat("CC(=O)[C@@]12CCCC[C@@H]1C[C@H]1[C@@H]3CCc4cc(O)ccc4[C@H]3CC[C@@]12C")
"Yes"
>>> cat("CC(O)[C@@]12C[C@@H]1C[C@H]1[C@@H]3CCc4cc(O)ccc4[C@H]3CC[C@@]12C (mixture of isomers)")
"Yes"
>>> cat("COc1ccc2c(c1)CC[C@@H]1[C@@H]2CC[C@@]2(C)[C@H]1C[C@H]1CCCC[C@]12C(C)=O")
"No"
>>> cat("COc1ccc2c(c1)CC[C@@H]1[C@@H]2CC[C@@]2(C)[C@H]1C[C@H]1CCCC[C@]12C(C)O (mixture of isomers)")
"No"

Give the logged outcome of this assay for the following molecule: CC(=O)[C@H]1CC[C@H]2[C@@H]3CCc4cc(O)ccc4[C@H]3CC[C@]12C
No

Next record, please: C[C@@H](O)[C@H]1CC[C@H]2[C@@H]3CCc4cc(O)ccc4[C@H]3CC[C@]12C
Yes

# repeat for C[C@H](O)[C@@]12CCCC[C@@H]1C[C@H]1[C@@H]3CCc4cc(O)ccc4[C@H]3CC[C@@]12C
Yes
